Tested on: MALME-3M melanoma
Experiment: NCI tumour cell line growth inhibition, 48 h
REPORTED METRIC: TGI

>>> print(df.to_string())
                                    compound          tested_on  reported_metric  measured
 0  C/C=C1\CN2CCc3c([nH]c4ccccc34)C2CC1C(=O)OC (stereo unspecified)  MALME-3M melanoma              TGI  > 322 µM
 1                   COc1cc2c3c(c1)CCCN3CCC2  MALME-3M melanoma              TGI   > 10 µM
 2  Cc1cccc(C)c1NC(=O)/C(=N/NC(N)=S)C(C)C(=O)c1ccc(Cl)cc1 (stereo unspecified)  MALME-3M melanoma              TGI  > 100 µM
 3  COc1ccc2c(c1)C(=O)C1CC(=O)CCC21 (stereo unspecified)  MALME-3M melanoma              TGI  > 100 µM
 4  CCC1(c2ccccc2)C(=O)N=C(c2ccccc2)N1CCc1ccccc1 (stereo unspecified)  MALME-3M melanoma              TGI  > 100 µM
 5  CC/C=C\C/C=C\C/C=C\CCCCCCCC(=O)OCC(O)CO (stereo unspecified)  MALME-3M melanoma              TGI  > 100 µM
 6  COc1ccc(-c2nc(Nc3cc(C)[nH]n3)c3ccccc3n2)cc1  MALME-3M melanoma              TGI  > 100 µM
 7  Cn1c(=O)c2[nH]c(CCNC(=O)c3ccccc3)nc2n(C)c1=O  MALME-3M melanoma              TGI  > 100 µM
 8  CC(=O)C(CN(CC(C)C)CC(C)C)C(c1ccccc1)c1c(O)c2ccccc2oc1=O (stereo unspecified)  MALME-3M melanoma              TGI  > 100 µM
 9  O=C1OC(Cc2ccccc2)(N2CCCC2=O)C1c1ccccc1 (stereo unspecified)  MALME-3M melanoma              TGI  > 100 µM
10  O=C1C(=C([O-])c2ccccc2)C(=O)c2ccccc21.O=C1C(=C([O-])c2ccccc2)C(=O)c2ccccc21.[Fe+2]  MALME-3M melanoma              TGI  > 100 µM
11  NC(N)=NCC[C@H](NC(=O)OCCCCCn1ccc(=O)[nH]c1=O)C(=O)O  MALME-3M melanoma              TGI  > 100 µM
12   O=C(NC1CCCCC1)NS(=O)(=O)c1ccc2c(c1)CCC2  MALME-3M melanoma              TGI  > 100 µM
13  COc1c(F)c(F)c(/C(O)=C\c2nc3ccccc3[nH]c2=O)c(F)c1F  MALME-3M melanoma              TGI   > 10 µM
14       COc1ccccc1-c1cc(=O)c2cc(C)cnc2[nH]1  MALME-3M melanoma              TGI  > 100 µM
15  CSc1nc2c(c(=O)[nH]1)N=C(c1ccc([N+](=O)[O-])cc1)CC(c1ccccc1)N2 (stereo unspecified)  MALME-3M melanoma              TGI  > 100 µM

----------
Tested on: RXF 393 renal
Experiment: NCI tumour cell line growth inhibition, 48 h
The entries below come with measured TGI values attached.
REPORTED METRIC: TGI

In [3]: df
Out[3]:
                                   molecule  measured
0             Cc1n[nH]c(=O)n1N1C(=O)CCCC1=O  > 100 µM
1  O=C(OCc1ccc2ccccc2n1)c1cn(C2CC2)c2cc(N3CCN(Cc4ccc5ccccc5n4)CC3)c(F)cc2c1=O  > 100 µM
2  COc1ccc2c(c1)N(CCO)C1=C(C(=O)OC1)C2c1cccc(F)c1 (stereo not drawn)   > 50 µM

----------
Tested on: A498 renal
Assay: NCI tumour cell line growth inhibition, 48 h
Each entry below lists one item and its recorded log10 of TGI value.
REPORTED METRIC: log10 of TGI (log10 of the value in µM)

MOLECULE	REPORTED METRIC	MEASURED
O=C1c2ccccc2-c2cc([N+](=O)[O-])c([N+](=O)[O-])cc21	log10 of TGI	1.52
COC1C=COC2(C)Oc3c(C)c(O)c4c(c3C2=O)/C(=N/C2CCC(O)OC2C)C=C(NC(=O)/C(C)=C\C(=O)C2CC2C(O)C(C)C(O)C(C)C(OC(C)=O)C1C)C4=O (configuration not stated)	log10 of TGI	0.92
CCOC(=O)C1=NOC2(C=C(Br)C(=O)C(Br)=C2)C1	log10 of TGI	1.58
C[C@]12CC[C@@H]3c4cc(OCC(F)(F)F)c(O)cc4CC[C@H]3[C@@H]1CC[C@@H]2O	log10 of TGI	1.32
CCN(CC)c1ccc2cc(C(=O)Nc3ccc4[nH]c(C(=O)N5C[C@@H](CCl)c6c5cc(OC(=O)Nc5ccccc5)c5[nH]cc(C)c65)cc4c3)oc2c1	log10 of TGI	-3.06
COc1ccccc1-c1cc(=O)c2cc(C)cnc2[nH]1	log10 of TGI	1.90
CCCCCCCCCCCCCCCCCC1=NCCN1CCOC1=C(Cl)C(=O)c2ccccc2C1=O	log10 of TGI	1.17

----------
Tested on: PC-3 prostate
Assay: NCI tumour cell line growth inhibition, 48 h
REPORTED METRIC: TGI

In [3]: df
Out[3]:
                                   compound  reported_metric  measured
0  COc1ccc(-c2cc(-c3ccc(C)cc3)nc3nc(=S)[nH]c(N)c23)cc1              TGI  > 100 µM
1  CSc1nc2c(c(=O)[nH]1)N=C(c1ccc([N+](=O)[O-])cc1)CC(c1ccccc1)N2 (centres undefined)              TGI  > 100 µM
2                O=[N+]([O-])c1cccc2nnccc12              TGI  > 100 µM
3  CO/N=C(\COc1ccc2c(c1)[nH]c1ccccc12)c1ccc(F)cc1              TGI  > 100 µM

----------
System: NCI/ADR-RES ovarian
Test: NCI tumour cell line growth inhibition, 48 h; in the data active means GI50 below about 0.43 µM; inactive means the rest
Outcomes: active, inactive

>>> df
                                   compound  category
0  CC(=O)/C=C/c1cn(C(=O)OC(C)(C)C)c2ccc(Br)cc12  inactive
1  Cc1cc(S(=O)(=O)/N=C(/N)Nc2ccccc2O)c(SCc2ccccc2)cc1Cl  inactive
2      N#Cc1c(N2CCOCC2)nc(=S)[nH]c1-c1ccco1  inactive
3  OCC1OC(n2cnc3c(N/N=C\c4ccccn4)ncnc32)C(O)C1O (stereo not given)    active
4  Fc1ccc(/C=N/n2c(-c3ccc(F)c(Cl)c3)nn(CNc3ccccc3C(F)(F)F)c2=S)cc1  inactive
5  CO/N=C(\COc1ccc2c(c1)[nH]c1ccccc12)c1ccc(F)cc1  inactive
6  O=C1CCC(N2Cc3cc(CNC(=O)C(F)(F)c4ccc(Cl)cc4)ccc3C2=O)C(=O)N1 (stereo not given)  inactive
7  CC(=O)OC12C=C(C)C(C(C)C1)C1C(=O)N(CCN3CCOCC3)C(=O)C12 (stereo not given)  inactive
8  COc1cc2c3c(n(C)c(=O)c2cc1OC)-c1cc2c(cc1/C3=C\CCCCN1C(=O)c3ccccc3C1=O)OCO2  inactive
9    c1cnn2ncc(-c3ccnc(NCCCN4CCOCC4)n3)c2c1  inactive

----------
TGI values by entry
System: K-562 leukemia
Experiment: NCI tumour cell line growth inhibition, 48 h
Where a SMILES comes first, the peptide text is derived from it. The star is where a group is joined. Boc = CC(C)(C)OC(=O)*
REPORTED METRIC: TGI

                                    compound  reported_metric   measured
 0            O=c1ssc(=Nc2ccccc2)n1-c1ccccc1              TGI    70.2 µM
 1  Cc1[nH]c2ccccc2c1C(=O)CC1(O)C(=O)Nc2c(Cl)cc(Cl)cc21 (centres undefined)              TGI      58 µM
 2              O=C(/C=C/c1ccccc1)CCN1CCOCC1              TGI    12.6 µM
 3  N#C[C@H](OC1OC(COC2OC(CO)C(O)C(O)C2O)C(O)C(O)C1O)c1ccccc1 (some centres undefined)              TGI   > 250 µM
 4  CCOC(=O)/C(C=Nc1c(C)n(C)n(-c2ccccc2)c1=O)=C(/C)O              TGI   > 100 µM
 5  COC1=CC(=O)C2=C(C1=O)[C@H]1CC[C@]3(C)[C@@H](O)CC[C@H]3[C@@H]1CC2              TGI    83.8 µM
 6  OCC12C3C4C5C3C1C5C42 (centres undefined)              TGI   > 100 µM
 7  CC(C)(C)OC(=O)NC(Cc1ccc(O)cc1)C(=O)N1CCCC1C(=O)O (stereo not drawn) (Boc-Tyr-Pro-OH; configuration not given here)              TGI   > 100 µM
 8  CC(=O)NC(CCCNC(=O)N(CCCl)N=O)C(=O)NCc1ccccc1 (centres undefined)              TGI   > 100 µM
 9  C1CCC([PH+](C2CCCCC2)C2CCCCC2[PH+](C2CCCCC2)C2CCCCC2)CC1.[Au].[CH-]1CCCCC1CC1CCCC[N-]1 (centres undefined)              TGI   > 100 µM
10  Nc1n[n+](CC(=O)c2ccccc2)c2sc(-c3ccccc3)nn12              TGI   > 100 µM
11  C=CCC1(OCc2ccccc2)C(=O)C(=O)OC1C1COC(C)(C)O1 (centres undefined)              TGI   > 100 µM
12                          NCCSS(=O)(=O)CCN              TGI   > 100 µM
13  COc1ccc(C2SCC(=O)N2c2ccc(-c3ccc(-n4c(-c5ccccc5)nc5ccccc5c4=O)cc3)cc2)cc1OC (centres undefined)              TGI      96 µM
14  CCN(CC)c1ccc2cc(C(=O)Nc3ccc4[nH]c(C(=O)N5C[C@@H](CCl)c6c5cc(OC(=O)Nc5ccccc5)c5[nH]cc(C)c65)cc4c3)oc2c1              TGI  > 1000 µM
15           COCc1nc(N)nc(N2N=C(C)CC2(C)C)n1              TGI   > 100 µM
16               CN=c1ccc2nc3ccc(N)cc3sc-2c1              TGI    16.7 µM
17  CCC(CCCN)Nc1cc(OC)cc2c(C)ccnc12 (centres undefined)              TGI    39.5 µM
18  O=C(/C=C/c1cc2ccccc2[nH]c1=O)/C=C/c1cc2ccccc2[nH]c1=O              TGI   > 100 µM
19     Cc1cc(C)c(-n2[nH]c(=O)n(C)c2=O)c(C)c1              TGI   > 100 µM
20  Cc1ccc(C2OC(COCc3ccc(Cl)cc3)C(OCc3ccc(Cl)cc3)C2O)cc1 (centres undefined)              TGI   > 100 µM
21  CCOC(=O)C1=C(C)N(c2ccc(Cl)cc2)[C@]2(C#N)C(O)=C(Cl)C(Cl)=C(O)[C@]12C#N              TGI   > 100 µM
22  O=C(O)C12C3CCC(CC3)C1(C(=O)O)C1CCC2C1 (centres undefined)              TGI   > 100 µM
23  CCC1(c2ccccc2)C(=O)N=C(c2ccccc2)N1CCc1ccccc1 (centres undefined)              TGI   > 100 µM
24      CCn1c2ccccc2c2ccc3c(c21)C(=O)C=CC3=O              TGI    9.19 µM
25                   COc1cc2c3c(c1)CCCN3CCC2              TGI    > 10 µM
26  O=C1c2c(c3c4ccccc4[nH]c3c3ccc4ccccc4c23)C(=O)N1CCN1CCNCC1              TGI    3.09 µM
27  CCCP1(=O)C=C(C)C(=C(Cl)Cl)C(C)=C1 (centres undefined)              TGI   > 100 µM
28  COc1ccc(C(=O)/C=C/c2ccc(O)c(O)c2)c(OC)c1              TGI  > 37.6 µM
29  COc1cc(C2SCC(=O)N2c2cccc(Cl)c2)cc(OC)c1OC (centres undefined)              TGI   > 100 µM
30  O=C1CC(c2c[nH]c3ccccc23)C(=O)N1 (centres undefined)              TGI   > 100 µM
31  O=C1c2cccnc2C(=O)c2c1c(C(=O)NCCCN1CCCCC1)c1ccccn21              TGI   > 100 µM
32             COc1ccc(C=O)c([N+](=O)[O-])c1              TGI      36 µM
33  O=C1OC2(CC1C1(O)C3CC4CC(C3)CC1C4)C1CC3CC(C1)CC2C3 (centres undefined)              TGI   > 100 µM

Where do these numbers come from? They come from PubChem BioAssay (NCI).
